The measurements presented in this section are drawn from patent US20080207537A1.

Overview of recorded Mean Redox Potential for various compounds
Assay: Redox potential measurement against Ag/AgCl reference electrode
Type: physicochemical
Details: 0.5M concentration, n = 3
Reply numerically in mV, unit not repeated.

Example results:
compound	val
O[C@@H](CS)[C@@H](O)CS (racemic) [DTT, 1,4-dithio-DL-threitol]	−241.0
Cl.N[C@@H](CS)C(=O)O.O [Cysteine, L-Cysteine hydrochloride hydrate]	−79.3
O=c1cc[nH]c(=S)[nH]1 [Thiouracil]	53.4

[in] Supply reported Mean Redox Potential belonging to this compound: O=C([O-])CS.[Na+] [Sodium thioglycolate]
[out] −281.7

[in] Report Mean Redox Potential, nothing else, for this compound: O=C(O)C(=O)O [Oxalic acid]
[out] 254.8

====

Assay: Redox potential measurement against Ag/AgCl reference electrode
Type: physicochemical
Conditions: 0.5M concentration, n = 3
measured quantity: Mean Redox Potential

Solved entries (count: 8):
compound	measured quantity	val
O=S(=O)([O-])OOS(=O)(=O)[O-].[K+].[K+] [Potassium persulphate]	Mean Redox Potential	402.5 mV
N.O=C(O)CS [Ammonium thioglycolate]	Mean Redox Potential	−235.9 mV
O=C([O-])CS.O=C([O-])CS.[Ca+2] [Calcium thioglycolate]	Mean Redox Potential	−531.3 mV
CC12CCC(CC1)C(C)(C)O2	Mean Redox Potential	67.2 mV
NC(N)=O.OO [Urea hydrogen Peroxide, Urea hydrogen peroxide addition compound]	Mean Redox Potential	349.7 mV
O=C(O)CS	Mean Redox Potential	−132.8 mV
O=C(O)/C=C/c1ccc(O)cc1	Mean Redox Potential	114.1 mV
O=C(O)CO	Mean Redox Potential	247.7 mV

[in] Determine from records and report Mean Redox Potential for Oc1cccc(O)c1
[out] 8.6 mV

[in] Report Mean Redox Potential for OO [Hydrogen peroxide]
[out] 277.3 mV

====

Test: pH of the agent solutions
Assay type: physicochemical
Conditions: 0.5M concentration, n = 3
measured quantity: Mean pH
Write no unit; give the number alone.

compound	Mean pH
O=C(O)CS	2.13
O=C(O)C(=O)O	1.33
O=C([O-])CS.O=C([O-])CS.[Ca+2] [Calcium thioglycolate]	11.74
O=C([O-])CS.[Na+] [Sodium thioglycolate]	6.90
O=C(O)CO	2.03

[in] Respond only with Mean pH recorded for OO [Hydrogen peroxide]
[out] 6.21

[in] Specify measured Mean pH for O=S(=O)([O-])OOS(=O)(=O)[O-].[K+].[K+] [Potassium persulphate] .
[out] 2.83

[in] Please indicate Mean pH recorded for Oc1cccc(O)c1
[out] 5.67

[in] State its Mean pH for this compound: O=c1cc[nH]c(=S)[nH]1
[out] 6.28

[in] Report measured Mean pH; entry is NC(N)=O.OO [Urea hydrogen Peroxide, Urea hydrogen peroxide addition compound]
[out] 2.72

[in] Report Mean pH, nothing else, for this compound: CC12CCC(CC1)C(C)(C)O2
[out] 5.91

[in] Answer with the recorded Mean pH of O[C@@H](CS)[C@@H](O)CS (racemic) only.
[out] 2.64

[in] Provide Mean pH value for the following compound: N.O=C(O)CS [Ammonium thioglycolate]
[out] 6.29

[in] Answer with the recorded Mean pH of O=C(O)/C=C/c1ccc(O)cc1 only.
[out] 3.54
